// provenance: patent US20210130452A1

- Test system: T1, human IL-17A/F heterodimer (human, UniProt Q16552 24-155; Q96PD4 31-163, limits assumed, biotinylated with Sulfo-NHS-LC-Biotin in the AlphaScreen assays only)
- T1 construct: also called hIL-17A/F
- T1 sequence (Q16552 24-155 limits assumed, chain 1 of 2): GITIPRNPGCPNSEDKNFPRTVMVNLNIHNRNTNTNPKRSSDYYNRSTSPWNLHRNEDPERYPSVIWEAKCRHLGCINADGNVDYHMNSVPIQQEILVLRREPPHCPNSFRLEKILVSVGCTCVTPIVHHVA
- T1 sequence (Q96PD4 31-163 limits assumed, chain 2 of 2): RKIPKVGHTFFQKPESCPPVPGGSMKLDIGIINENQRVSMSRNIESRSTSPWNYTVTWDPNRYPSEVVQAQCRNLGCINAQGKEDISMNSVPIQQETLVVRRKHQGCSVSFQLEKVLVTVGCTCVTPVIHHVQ
- Assay text: AlphaScreen competition, hIL-17A/F - IL-17RC-Fc
pIC50: −log10 of the molar value.
Experimental endpoint: pIC50

>>> value_measured("04G01 (VHH, Class 2 Nanobody (anti-IL-17A and IL-17A/F); also called IL17MS04G01; not shown: c-myc, His6 tag) VHH: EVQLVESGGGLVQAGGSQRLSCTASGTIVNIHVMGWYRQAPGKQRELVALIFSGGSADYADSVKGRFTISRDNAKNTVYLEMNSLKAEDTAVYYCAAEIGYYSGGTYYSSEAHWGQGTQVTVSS")
10.41
>>> value_measured("16A04 (VHH, Class 3 Nanobody (anti-IL-17F); also called IL17MS16A04; not shown: c-myc, His6 tag) VHH: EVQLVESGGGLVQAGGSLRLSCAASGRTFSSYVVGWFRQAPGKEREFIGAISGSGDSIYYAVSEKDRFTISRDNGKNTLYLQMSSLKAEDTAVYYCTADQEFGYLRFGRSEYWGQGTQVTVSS")
9.41
>>> value_measured("18B05 (VHH, Class 4 Nanobody (cross-reactive: anti-IL-17A, IL-17F and IL-17A/F); not shown: c-myc, His6 tag) VHH: EVQLVKSGGGLVQPGGSLRLSCAASGGTFSLFAMGWFREAPGKEREFVAAIRWSDGSSYYADSVKGRFTISRDNAKNAVHLQSNSLKSEDTAVYYCYADVQGGLHRYWGQGTQVTVSS")
10.06
>>> value_measured("01D02 (VHH, Class 1 Nanobody (anti-IL-17A); not shown: c-myc, His6 tag) VHH: EVQLVESGGGLVQAGGSLRLSCAASGLSFSSYALGWFRQAPGKERDFVAAINWSGDNTHYADSVKGRFTISRDNAKNTVSLQMNSLKPEDTAVYYCAAQLGYESGYSLTYDYDYWGQGTQVTVSS")
7.02
>>> value_measured("12A09 (VHH, Class 3 Nanobody (anti-IL-17F); not shown: c-myc, His6 tag) VHH: EVQLVESGGGLVQPGGSLRLSCAASGFTFSSYRMAWVRQAPGKGLEWVSSTSTGGEMTNYADSVKGRFTISRDNAKNTLHLQMNSLKPEDTALYYCAAGTSAGHWSTGGQGTQVTVSS")
7.48
>>> value_measured("10A04 (VHH, Class 4 Nanobody (cross-reactive: anti-IL-17A, IL-17F and IL-17A/F); not shown: c-myc, His6 tag) VHH: EVQLVESGGGLVQPGGSLRLSCAASGFTFSSYWMYWVRQAPGKGLEWISALAPGGGNRYYAESVNGRFTISRDNAKNSLYLQMNSLKSEDTAVYYCAKDHNVGYRTGEYDYGGQGTQVTVSS")
7.81
>>> value_measured("13E02 (VHH, Class 4 Nanobody (cross-reactive: anti-IL-17A, IL-17F and IL-17A/F); also called IL17MS13E02; not shown: c-myc, His6 tag) VHH: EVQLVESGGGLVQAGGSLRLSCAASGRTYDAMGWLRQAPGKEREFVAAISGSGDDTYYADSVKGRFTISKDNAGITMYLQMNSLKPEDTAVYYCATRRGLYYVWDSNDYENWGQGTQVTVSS")
9.93
>>> value_measured("04B10 (VHH, Class 2 Nanobody (anti-IL-17A and IL-17A/F); not shown: c-myc, His6 tag) VHH: EVQLVESGGGLVQAGGSQSLSCVASGTIVNINVMGWYRQAPGKQRELVALITSGGGTTYGDSVKGRFTISIDNAKNTVILQMNSLEAEDTAVYYCAAEIGYYSGGTYFSSEAHWGQGTQVTVSS")
10.28
